Experiment: Genotoxicity in Salmonella typhimurium TA1535 harboring pSK1002 assessed as umu gene induction at 0.004 mg/ml in presence of Sprague-Dawley rat liver S9 fraction after by SOS/umu assay relative to control
Assay type: toxicity, organism-based
Details: salmonella enterica subsp. enterica serovar typhimurium, read-out: FC
Consider the following compounds and their measured fold induction at 0.004 mg/ml readings.
Reply: number alone, nothing else.

Some solved cases for reference:
• COc1ccccc1N1CCN(CCC(O)c2ccc(F)c3ccccc23)CC1 (stereo not drawn) = 0.8
• N#Cc1ccc(N2CCC(NCCC(O)c3ccc(F)c4ccccc34)CC2)c(Br)c1 (stereo not drawn) = 0.9
• OC(CCN1CCN(C(c2ccccc2)c2ccccc2)CC1)c1ccc(Br)cc1 (stereo not drawn) = 1
• COc1ccccc1C1=CCN(CCC(O)c2ccc(F)cc2)CC1 (stereo not drawn) = 1.1
• Oc1ccc(C(O)CCN2CC=C(c3ccc(F)cc3)CC2)cc1 (stereo not drawn) = 0.5
• O=[N+]([O-])c1ccccc1N1CCN(CCC(O)c2ccc(F)c3ccccc23)CC1 (stereo not drawn) = 1.2
• N#Cc1ccc(N2CCC(NCCC(O)c3ccc(F)c4ccccc34)CC2)c(Cl)c1 (stereo not drawn) = 0.5
• OC(CCN1CCN(c2ccccc2C(F)(F)F)CC1)c1ccc(F)cc1 (stereo not drawn) = 1.1

Provide fold induction at 0.004 mg/ml value for the following compound: OC(CCN1CCN(C(c2ccccc2)c2ccccc2)CC1)c1ccc(F)c2ccccc12 (stereo not drawn)
0.8
